Biological target: UniProt P03303
Experiment: HRV3C protease assay (duplex, SAMDI-MS)
Type: biochemical, HRV
Conditions: HRV3C, 30 mins preincubation, class symbols; read-out: HRV IC50
measure: IC50

{"columns": ["molecule", "IC50"],
 "data": [
  ["COc1cc(Cl)cc2[nH]c(C(=O)N3C[C@@H]4CCC[C@@H]4[C@H]3C(=O)N[C@@H](C[C@@H]3CCNC3=O)C(=O)CO)cc12", "2000 to 20000 nM"],
  ["COc1cccc2[nH]c(C(=O)N3C[C@@H]4CCC[C@@H]4[C@H]3C(=O)N[C@@H](C[C@@H]3CCNC3=O)C(=O)COCc3ccccc3)cc12 [Compound 27A]", "2000 to 20000 nM"],
  ["COc1cccc2[nH]c(C(=O)N3C[C@@H]4CCC[C@@H]4[C@H]3C(=O)N[C@@H](CC3CC(C)(C)NC3=O)C(=O)COCc3ccccc3)cc12 (relative stereo)", "2000 to 20000 nM"]
]}

Asked: UniProt P03303 / IC50 / O=C(NCc1ccccc1)C(=O)C(C[C@@H]1CCCNC1=O)NC(=O)[C@@H]1[C@H]2CCC[C@H]2CN1C(=O)c1cc2ccccc2[nH]1 (stereo partly drawn) : value?
Given back: 2000 to 20000 nM

Asked: UniProt P03303 / IC50 / COc1cccc2[nH]c(C(=O)N3C[C@@H]4CCC[C@@H]4[C@H]3C(=O)N[C@@H](C[C@@H]3CCNC3=O)C(=O)C(=O)NCC(F)(F)F)cc12 : value?
Given back: 2000 to 20000 nM

Asked: UniProt P03303 / IC50 / O=C(NC1CC1)C(=O)[C@H](C[C@@H]1CCNC1=O)NC(=O)[C@@H]1CC2(CCN1C(=O)c1cc3c(C(F)(F)F)cccc3[nH]1)CC2 : value?
Given back: 200 to 2000 nM

Asked: UniProt P03303 / IC50 / C=CC12CN(C(=O)c3cc4c(OC)cccc4[nH]3)C(C(=O)N[C@@H](C[C@@H]3CCNC3=O)C(=O)C(=O)NC3CC3)(C1)C2 : value?
Given back: 20 to 200 nM

====

Assay: Cytotoxicity plates without OC43 virus (cell-titer-glo)
Format: cell-based, human
Settings: human; HeLa cells without OC43 virus, class symbols
measure: CC50 at 6 days

{"columns": ["compound", "CC50 at 6 days"],
 "data": [
  ["Cn1ccc2[nH]c(C(=O)N3C[C@@H]4CCC[C@@H]4[C@H]3C(=O)N[C@@H](C[C@@H]3CCNC3=O)C(=O)CO)cc2c1=O [Compound 77]", "> 10 µM"],
  ["COc1cccc2[nH]c(C(=O)N3CCc4ccccc4[C@H]3C(=O)N[C@@H](C[C@@H]3CCNC3=O)C(=O)CO)cc12 [Compound 106]", "> 10 µM"]
]}

In the following, a different compound is considered.
Asked: Value lookup for CC50 at 6 days; key = CC(=O)c1c[nH]c(C(=O)N2C[C@@H]3CCC[C@@H]3[C@H]2C(=O)N[C@@H](C[C@@H]2CCNC2=O)C(=O)CO)c1 [Compound 86]
Given back: > 10 µM

====

Test system: human beta-coronavirus OC43
Assay: microbe, parasite or virus in culture
Format: cell-based
Settings: Betacoronavirus 1, OC43, HeLa, 144 h, OC43 in HeLa cells, 6 days at 33° C., class symbols; read-out: EC50
pEC50: −log10 of the molar value.
measure: pEC50

Some solved entries appear below for comparison.
{"columns": ["compound", "pEC50"],
 "data": [
  ["COc1c(Cl)ccc2[nH]c(C(=O)N3C[C@@H]4CCC[C@@H]4[C@H]3C(=O)N[C@@H](C[C@@H]3CCNC3=O)C(=O)CO)cc12", "6.00 to 7.00"],
  ["COc1cccc2[nH]c(C(=O)N3C[C@@H]4CCC[C@@H]4[C@H]3C(=O)N[C@@H](C[C@@H]3CCCNC3=O)C(=O)CO)cc12", "> 7.00"],
  ["O=C(NCc1ccccc1)C(=O)C(C[C@@H]1CCNC1=O)NC(=O)[C@@H]1C[C@@H](c2ccccc2)CN1C(=O)c1cc2ccccc2[nH]1 (stereo partly drawn)", "6.00 to 7.00"]
]}

Asked: Value lookup for pEC50; key = CC1(C)C[C@@H](C(=O)NC(C[C@@H]2CCNC2=O)C(=O)C(=O)NCc2ccccc2)N(C(=O)c2cc3ccccc3[nH]2)C1 (stereo partly drawn)
Given back: 5.00 to 6.00

Asked: Value lookup for pEC50; key = O=C1NCC[C@H]1C[C@H](NC(=O)[C@@H]1[C@H]2CCC[C@H]2CN1C(=O)c1cc2c(Cl)ccc(Cl)c2[nH]1)C(=O)CO
Given back: 6.00 to 7.00

Asked: Value lookup for pEC50; key = O=C(NCc1ccccc1)C(=O)C(C[C@@H]1CCNC1=O)NC(=O)[C@@H]1[C@H]2CC[C@H](C2)N1C(=O)c1cc2ccccc2[nH]1 (stereo partly drawn)
Given back: 5.00 to 6.00

Asked: Value lookup for pEC50; key = O=C1NCC[C@H]1C[C@H](NC(=O)[C@@H]1[C@H]2CCC[C@H]2CN1C(=O)c1cc2c(OCc3ccccc3)cccc2[nH]1)C(=O)CO
Given back: > 7.00

Asked: Value lookup for pEC50; key = COc1cccc2[nH]c(C(=O)N3C[C@@H]4CCC[C@@H]4[C@H]3C(=O)NC(C[C@@H]3CCNC3=O)C(=O)C(=O)NCc3ccccc3)cc12 (stereo partly drawn)
Given back: 6.00 to 7.00

Asked: Value lookup for pEC50; key = COc1cccc2[nH]c(C(=O)N3C[C@H]4CCCC[C@H]4[C@@H]3C(=O)N[C@@H](C[C@@H]3CCCNC3=O)C(=O)COCc3ccccc3)cc12 (single isomer, unassigned)
Given back: 5.00 to 6.00

Asked: Value lookup for pEC50; key = O=C(NCCOC1CCCC1)C(=O)[C@H](C[C@@H]1CCNC1=O)NC(=O)[C@@H]1[C@H]2CCC[C@H]2CN1C(=O)c1cc2c(Cl)cc(Cl)cc2[nH]1
Given back: 6.00 to 7.00

Asked: Value lookup for pEC50; key = O=C(NCc1ccccc1)C(=O)[C@H](Cc1cccnc1)NC(=O)[C@@H]1CC2(CC2)CN1C(=O)c1cc2ccccc2[nH]1
Given back: 4.00 to 5.00

Asked: Value lookup for pEC50; key = N#Cc1cccc2[nH]c(C(=O)N3C[C@@H]4CCC[C@@H]4[C@H]3C(=O)NC(C[C@@H]3CCNC3=O)C(=O)COCc3ccccc3)cc12 (stereo partly drawn) [Compound 66A]
Given back: 6.00 to 7.00

// provenance: patent US11952365B2
